molecular target: Recombinant human HDAC10 (Homo sapiens); construct: made in house; assay: Inhibitor specificity: fluorescence-based HDAC10 activity assay; assay type: biochemical; settings: 10 μM fluorescein-labeled spermidine substrate; read-out: HDAC10 IC50
Sequence (Q969S8 whole entry): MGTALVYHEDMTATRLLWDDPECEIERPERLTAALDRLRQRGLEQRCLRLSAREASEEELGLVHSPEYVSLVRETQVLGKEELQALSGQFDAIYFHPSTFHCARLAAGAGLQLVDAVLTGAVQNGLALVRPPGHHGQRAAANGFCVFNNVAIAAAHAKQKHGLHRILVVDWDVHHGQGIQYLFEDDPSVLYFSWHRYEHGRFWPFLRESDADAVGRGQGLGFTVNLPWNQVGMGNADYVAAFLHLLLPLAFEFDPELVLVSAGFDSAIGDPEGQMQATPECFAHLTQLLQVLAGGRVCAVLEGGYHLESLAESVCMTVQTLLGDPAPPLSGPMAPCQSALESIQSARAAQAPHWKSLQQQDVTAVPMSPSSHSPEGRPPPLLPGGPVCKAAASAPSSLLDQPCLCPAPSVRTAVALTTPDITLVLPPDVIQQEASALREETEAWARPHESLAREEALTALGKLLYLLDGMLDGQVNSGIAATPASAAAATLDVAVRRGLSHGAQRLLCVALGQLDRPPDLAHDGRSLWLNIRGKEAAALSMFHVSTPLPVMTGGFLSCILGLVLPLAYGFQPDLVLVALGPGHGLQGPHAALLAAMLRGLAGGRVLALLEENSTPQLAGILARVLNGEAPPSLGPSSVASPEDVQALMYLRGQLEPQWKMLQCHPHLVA
assay_metric: IC50

Task item: Which IC50 is reported for this molecule? `O=[N+]([O-])c1ccc(C(CCc2nnn[nH]2)(CCc2nnn[nH]2)c2nnn[nH]2)cc1`
Reply: > 100 µM

----------
biological target: Recombinant human GCPII (Homo sapiens); construct: made in house; experiment: In vitro GCPII inhibition assay, fluorescence-based, RP-HPLC readout (screening at 20 μM and IC50); type: biochemical; conditions: substrate concentration at KM (100 nM Glu-Glu dipeptide labeled with fluorescein)
Sequence (Q04609 whole entry): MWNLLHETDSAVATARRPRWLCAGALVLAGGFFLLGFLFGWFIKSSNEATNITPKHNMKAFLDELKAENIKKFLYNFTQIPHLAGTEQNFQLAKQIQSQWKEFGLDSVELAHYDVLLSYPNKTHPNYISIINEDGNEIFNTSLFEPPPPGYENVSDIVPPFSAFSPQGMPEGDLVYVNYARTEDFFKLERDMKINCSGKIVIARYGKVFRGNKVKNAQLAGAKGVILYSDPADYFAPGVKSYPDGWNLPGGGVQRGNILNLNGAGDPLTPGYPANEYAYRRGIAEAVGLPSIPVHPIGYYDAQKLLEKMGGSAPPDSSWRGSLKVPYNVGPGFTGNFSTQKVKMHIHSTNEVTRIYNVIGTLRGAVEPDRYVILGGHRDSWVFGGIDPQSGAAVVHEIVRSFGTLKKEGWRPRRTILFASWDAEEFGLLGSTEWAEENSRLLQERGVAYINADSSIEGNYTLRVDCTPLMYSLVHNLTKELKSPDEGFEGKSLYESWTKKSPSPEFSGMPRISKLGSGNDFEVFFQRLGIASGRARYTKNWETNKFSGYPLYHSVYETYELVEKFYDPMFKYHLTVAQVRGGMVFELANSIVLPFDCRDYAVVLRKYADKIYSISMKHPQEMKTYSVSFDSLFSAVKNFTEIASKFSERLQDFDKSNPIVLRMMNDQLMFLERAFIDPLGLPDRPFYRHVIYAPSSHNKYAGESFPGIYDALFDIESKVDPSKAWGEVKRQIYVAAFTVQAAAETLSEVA
Would you mind telling me the reported IC50 of each entry?
Numbers only, in µM.

Task item: Which IC50 is reported for this molecule? `O=[N+]([O-])c1ccc(C(CCc2nnn[nH]2)(CCc2nnn[nH]2)c2nnn[nH]2)cc1`
Reply: 15

Continuing:
Task item: Which IC50 is reported for this molecule? `O=C(O)c1ccccc1-c1c2ccc(=O)c(I)c-2oc2c(I)c(OS(=O)(=O)c3ccc(Br)cc3)ccc12`
Reply: 0.353

Each recorded value in this set is attributed to paper PMC9976286.
